biological target: Estrogen receptor (Homo sapiens) (UniProt P03372); test: Displacement of fluorescein-labeled estradiol from human recombinant ERalpha at 5 uM by fluorescence polarization assay
Sequence (P03372 whole entry): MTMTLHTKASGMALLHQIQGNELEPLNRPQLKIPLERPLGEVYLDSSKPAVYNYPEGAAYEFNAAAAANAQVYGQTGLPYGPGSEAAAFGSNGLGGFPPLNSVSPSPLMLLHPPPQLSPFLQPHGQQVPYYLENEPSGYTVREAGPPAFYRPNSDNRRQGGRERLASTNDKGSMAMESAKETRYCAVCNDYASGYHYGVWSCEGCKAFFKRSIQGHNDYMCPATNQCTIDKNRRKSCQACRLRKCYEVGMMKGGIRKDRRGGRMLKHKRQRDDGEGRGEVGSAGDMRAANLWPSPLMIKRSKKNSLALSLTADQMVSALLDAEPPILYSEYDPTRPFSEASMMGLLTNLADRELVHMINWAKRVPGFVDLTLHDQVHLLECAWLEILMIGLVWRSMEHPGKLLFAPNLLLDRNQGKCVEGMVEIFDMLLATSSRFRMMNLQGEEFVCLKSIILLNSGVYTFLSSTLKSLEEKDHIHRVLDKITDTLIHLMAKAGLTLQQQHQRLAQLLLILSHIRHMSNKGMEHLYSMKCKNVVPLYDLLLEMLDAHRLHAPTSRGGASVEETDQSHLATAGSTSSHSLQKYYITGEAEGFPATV
MEASURED_PARAMETER: Activity (%)

In [3]: df
Out[3]:
                            compound_smiles  measured_parameter  unit_spec  assay_value
0   C=C(CCCC)[C@@H](NC(=O)c1ccccc1)c1ccccc1            Activity          %           67
1  CCC/C=C(\CCC)[C@@H](NS(=O)(=O)c1ccccc1)c1ccc(C(F)(F)F)cc1            Activity          %          102
2  CCC/C=C(\CCC)[C@@H](NC(=O)c1ccccc1)c1ccccc1            Activity          %           82
3  CCC[C@@H]1C[C@@]1(CCC)[C@@H](NC(=O)c1ccco1)c1ccc(C(Cl)(Cl)Cl)cc1            Activity          %           73
